B1: ZBED1 (parent)
chain: EQVFSLGDGVSGGFFGIRDSSFL

- Variants of: B1
- measurementDescription: protein stability index of a GFP-peptide fusion (GPS, HEK-293T) (PSI 1-6); higher = more stable;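 also: lentivirally expressed fusions sorted by FACS into six bins by GFP to DsRed ratio, PSI derived from sequencing read proportions per bin multiplied by bin number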
- conditionSet: c terminus: native
Let's look at some variants and their measured protein stability index.
// no unit, no text: just the number

Recorded protein stability index, per entry:
D8A: 2.7
S21Y: 2.66
G12D: 4.06

Now consider a different variant.
protein stability index lookup needed for L6F , thanks.
3.22
